Hey, just so you know, these numbers are from ChEMBL document CHEMBL1130732.

- Test system: Mycobacterium tuberculosis
- method: Minimum inhibitory concentration against Mycobacterium tuberculosis H37Ra
- Type: functional
measurement_name: MIC

| compound | observed |
| --- | --- |
| COc1ccccc1SCC1NC(CO)C(O)C1O (centres undefined) | > 128 µg/mL |

State recorded MIC for all listed compounds.
1. OC[C@H]1O[C@@H](CSc2ccccc2)[C@H](O)[C@@H]1O
2. OCC1NC(CSc2ccncc2)C(O)C1O (centres undefined)
3. O=S(=O)(CC1NC(CO)C(O)C1O)c1ccccc1 (centres undefined)
4. OCC1NC(CSc2ccccc2)C(O)C1O (centres undefined)
5. [O-][S+](CC1NC(CO)C(O)C1O)c1ccccc1 (centres undefined)
6. OCC1NC(CSCc2ccccc2)C(O)C1O (centres undefined)
7. COc1ccc(SCC2NC(CO)C(O)C2O)cc1 (centres undefined)
8. N#Cc1ccc(SCC2NC(CO)C(O)C2O)cc1 (centres undefined)

Result:
["> 128 µg/mL", "> 128 µg/mL", "> 128 µg/mL", "> 128 µg/mL", "> 128 µg/mL", "> 128 µg/mL", "> 128 µg/mL", "> 128 µg/mL"]
